# system.under.test: E3 ubiquitin-protein ligase XIAP [241-356] (Homo sapiens, UniProt P98170)
# Sequence (P98170 241-356): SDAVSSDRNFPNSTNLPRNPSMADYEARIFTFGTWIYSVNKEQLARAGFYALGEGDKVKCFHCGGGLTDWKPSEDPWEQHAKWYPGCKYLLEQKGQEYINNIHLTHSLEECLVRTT
pKd: −log10 of the molar value. Square brackets hold non-standard residues; d marks the D form. Peptide text beside a SMILES is read from it. * marks the point of attachment. Tle = CC(C)(C)[C@H](N)C(=O)O; NMeA = CN[C@@H](C)C(=O)O; βNA = c1ccc2cc(N*)ccc2c1
test.readout: pKd

Q. GET /values?readout=pKd&item= C[C@@H](C(=O)N[C@H](C(=O)N1CCC[C@H]1C(=O)N[C@@H]1CCCc2ccccc21)C1CCCCC1)N(C)C
A. < 6.00

Q. Which value of pKd has been reported for CN[C@@H](C)C(=O)N[C@H](C(=O)N1CCC[C@H]1C(=O)NC1c2ccccc2-c2ccccc21)C(C)(C)C [H-N-Me-Ala-Tle-Pro-fluoren-9-yl Amide] in the records?
A. 7.33

Q. Form field: reported pKd of CN[C@@H](C)C(=O)N[C@H](C(=O)N1CCC[C@H]1C(=O)Nc1cccc2ccccc12)C(C)(C)C [H-N-Me-Ala-Tle-Pro-naphth-1-yl Amide]
A. < 6.30

Q. Need pKd, item CN[C@@H](C)C(=O)N[C@H](C(=O)N1CCC[C@H]1C(=O)N[C@H]1CCc2ccccc21)C(C)(C)C [H-N-Me-Ala-Tle-Pro-(S)-indan-1-yl Amide]
A. < 6.00

Q. So what does the record say about pKd for C[C@@H](C(=O)N[C@H](C(=O)N1CCC[C@H]1C(=O)N[C@@H]1CCCc2ccccc21)C(C)(C)C)N(C)C ?
A. < 6.00

// input: 2 compounds below; output: pKd for each
1. CN[C@@H](C)C(=O)N[C@H](C(=O)N1CCC[C@H]1C(=O)Nc1ccc2ccccc2c1)C(C)(C)C (H-[NMeA]-[Tle]-Pro-βNA)
2. C[C@@H](C(=O)N[C@H](C(=O)N1C[C@@H](Oc2ccccc2)C[C@H]1C(=O)N[C@@H]1CCCc2ccccc21)C(C)(C)C)N(C)C

A.
< 6.00
< 6.00
